system: PPARg:RXRa (NR concentration 180 nM, RXRa partner concentration 90 nM); test: PBM binding z-score (relative to random genomic background probes); higher = stronger binding; sequences stand for … in GC…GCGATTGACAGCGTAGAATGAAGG
Some sequences, each annotated with its measured PBM binding z-score.
Kindly provide the number alone.

residue codes | PBM binding z-score
TATTGTAGATCAATAGAGGTTAAGAAAGTGCGCT | 0.757

Returns the measured PBM binding z-score for the input sequence. Input: GCAGACAGGTGAAACGCAGGTAACTCAGGGTGGC
0.383

Returns the measured PBM binding z-score for the input sequence. Input: CCTACTGGGCCAAACAGGTCATTGATGCCGATAA
1.79

Returns the measured PBM binding z-score for the input sequence. Input: TAGCCTAGGTCATTAAGGGGCCAGTATAGAAAGC
1.75

Returns the measured PBM binding z-score for the input sequence. Input: GATACAGGGTCAGCTAGATGCCAGAGTATGGAAA
4.08

Returns the measured PBM binding z-score for the input sequence. Input: ATACCAAGGTGATCGTGAGATCGTTGATACTAAC
0.447

Returns the measured PBM binding z-score for the input sequence. Input: AGAACGAGGGCAGTGAGTTGATAGCACGGGTGGC
0.647

====

test system: RXRa DBDmut IVT, anti-RXR (DBD mutation: RXRa K156A/R161A, NR concentration 90 nM); test: PBM binding z-score (relative to random genomic background probes); higher = stronger binding; sequences stand for … in GC…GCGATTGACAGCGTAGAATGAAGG
assay metric: PBM binding z-score

Field: example entries. Status: answers known.
residue codes | system | PBM binding z-score
ATGTGTAGGTTATCGGGTCATTCAGTTTGCGCAT | RXRa DBDmut IVT, anti-RXR (DBD mutation: RXRa K156A/R161A, NR concentration 90 nM) | 1.75
ATATGTAGGTTAAGGGTCATTTAGGTTGGTTCGC | RXRa DBDmut IVT, anti-RXR (DBD mutation: RXRa K156A/R161A, NR concentration 90 nM) | 2.35
ACTAGTTGGTCAGCTGAGGACACACACAATTCGG | RXRa DBDmut IVT, anti-RXR (DBD mutation: RXRa K156A/R161A, NR concentration 90 nM) | 0.558
ATATGTCGGTTACATCCGGGTCATTCAGGCTATG | RXRa DBDmut IVT, anti-RXR (DBD mutation: RXRa K156A/R161A, NR concentration 90 nM) | 0.511
GCTAGTTGGTCAGTAAAAGGTCACAAACCGGTCG | RXRa DBDmut IVT, anti-RXR (DBD mutation: RXRa K156A/R161A, NR concentration 90 nM) | 0.203

Returns the measured PBM binding z-score for the input sequence. Input: ACTGTTAGTTGACTTAGGGCAACCGATACGACGC
0.609

Returns the measured PBM binding z-score for the input sequence. Input: CAAACTAGGTCACGAAAGGTCAAAGTAGAATGAC
2.39

====

tested on: LXRa:RXRa (NR concentration 270 nM, RXRa partner concentration 90 nM); assay: PBM binding z-score (relative to random genomic background probes); higher = stronger binding; sequences stand for … in GC…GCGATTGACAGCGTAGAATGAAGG
Classification field: y = PBM binding z-score at or over 3; n = PBM binding z-score under 3.

A selection of reference data follows.
residue codes | class assignment
CCGACTGGGGCAAATGTTACCATACTCAGTACGA | n
AGTCAAAGTTCAGGACGAGGTAAGGTAAAGCACG | y
TCATATAGGTAATACACGTGAAAGTCGGCATCTA | n
CCTAGTTCGTCAGGAGGTCACACACCGGATATGA | y
CCTTACGGGTCACGAGGATATAGCACGACGAGCG | y
CTACCAAGGTAAACAAGGTCGTTGATTACTATTC | n
CCTATTAGTTGACCATAAGGGCAACCGGAGCTCG | n
CGTCCAAGGTCAGCAGGTCAGTGAAAGCGACGTG | y

Hello, I need to know if ATATGTAGGTTATGGGGTCATTCAGTTTGCGCAT has measured PBM binding z-score not below 3. Thanks!
y
